assay: collision cross section (DTIM-MS, N2); higher = larger ion; conditions: ion adduct: [M+H]+
Parameter Measured: collision cross section (Å²)

O=C1C[C@@H](c2ccc(O)cc2)Oc2cc(O)ccc21; 162
COc1ccc(CCC(=O)c2c(O)cc(O[C@@H]3O[C@H](CO)[C@@H](O)[C@H](O)[C@H]3O[C@@H]3O[C@@H](C)[C@H](O)[C@@H](O)[C@H]3O)cc2O)cc1O [Neosperidin dihydrochalcone]; 233.96
Nc1nc(=S)c2[nH]cnc2[nH]1; 132.57

[P] COc1ccc(-c2cc(=O)c3c(O)cc(O)c(-c4cc(-c5cc(=O)c6c(O)cc(OC)cc6o5)ccc4OC)c3o2)cc1
[Q] COc1ccc2ccc(=O)oc2c1
Input: Look at P and Q . Which one has the lower recorded collision cross section number? Your answer should be the label of the entry you select.
Output: Q

Source listed as the supplement of paper PMC7455731.
